TGT: MRGPRX2-MUT (MRGPRX2 N62S mutation) (Homo sapiens, UniProt Q96LB1, N62S)
Construct: expressed in transfected cells
Sequence (Q96LB1 1-330 N62S): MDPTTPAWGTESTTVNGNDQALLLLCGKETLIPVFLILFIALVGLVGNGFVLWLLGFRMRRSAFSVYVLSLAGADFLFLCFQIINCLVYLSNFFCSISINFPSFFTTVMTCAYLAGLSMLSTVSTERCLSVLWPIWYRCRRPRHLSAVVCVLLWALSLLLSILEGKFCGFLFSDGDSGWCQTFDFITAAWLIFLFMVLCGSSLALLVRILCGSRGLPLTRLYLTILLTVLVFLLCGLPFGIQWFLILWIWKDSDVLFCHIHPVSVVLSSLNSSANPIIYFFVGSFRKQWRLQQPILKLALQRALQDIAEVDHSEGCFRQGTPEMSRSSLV
METHOD DESCRIPTION: Primary HTS, Ca2+ mobilization (fluorescence ratio, B-score) in HEK293-Gα15 cells stably expressing the MRGPRX2 N62S mutation
Type: cell-based
CONDITION: MRGPRX2-MUT in comparison to MRGPRX2-WT cells, 10 μM, Table 1
Structures can show the parent of a compound that is named as a salt.
Each item that follows carries a reported Change of B-scores (%).
READOUT KIND: Change of B-scores (%)

INSERT INTO measurements (compound, reported_result) VALUES
  ('CN1CCc2c(c3ccccc3n2Cc2ccccc2)C1.CN1CCc2c(c3ccccc3n2Cc2ccccc2)C1.O=S(=O)(O)c1cccc2c(S(=O)(=O)O)cccc12 [Mebhydrolin Naphthalenesulfonate]', -92.39),
  ('CN1CCN(CC/C=C2/c3ccccc3Sc3ccc(S(=O)(=O)N(C)C)cc32)CC1', -74.90),
  ('CN(C)CCC(c1ccc(Br)cc1)c1ccccn1 (stereo not shown) [Brompheniramine Maleate]', -97.07),
  ('CN(C)CCCN1c2ccccc2CCc2ccc(Cl)cc21 [Clomipramine Hydrochloride]', -92.83);
